Below is a list of entries, each paired with its recorded growth inhibition value.
Experiment: NCI Yeast Anticancer Drug Screen. Data for the bub3 strain (AID 167)
Conditions: S. cerevisiae bub3 mutant strain, at 50.0 µM, hits give high values
About 79,000 compounds went through this panel and 15% of them were active in at least one assay; those are over-represented in the sample as a whole.
Experimental endpoint: growth inhibition (%)

[
  {
    "Compound": "O=C(O)C1(Cc2ccc3c(c2)CCC3)Cc2ccccc2C1=O (stereo not given)",
    "Experimental endpoint": "growth inhibition",
    "Unit abbrev": "%",
    "Experimental value": 90.2
  },
  {
    "Compound": "Nc1cc(F)c(F)cc1Sc1cc(F)c(F)cc1N",
    "Experimental endpoint": "growth inhibition",
    "Unit abbrev": "%",
    "Experimental value": 99.5
  },
  {
    "Compound": "O=C(Cn1nnc2ccccc21)N1CCN(c2ccccc2)CC1",
    "Experimental endpoint": "growth inhibition",
    "Unit abbrev": "%",
    "Experimental value": 14.9
  },
  {
    "Compound": "CN(Cc1cnc2nc(N[Si](C)(C)C)nc(N[Si](C)(C)C)c2n1)c1ccc(C(=O)NC(CCC(=O)O[Si](C)(C)C)C(=O)O[Si](C)(C)C)cc1 (stereo not given)",
    "Experimental endpoint": "growth inhibition",
    "Unit abbrev": "%",
    "Experimental value": 69.7
  },
  {
    "Compound": "C=C1CC2(CCCC3(CC(=C)C(=O)O3)C2(C)C)OC1=O (stereo not given)",
    "Experimental endpoint": "growth inhibition",
    "Unit abbrev": "%",
    "Experimental value": 44.6
  },
  {
    "Compound": "CCOc1nc(N)nc(C)c1N=Nc1ccc(Cl)cc1",
    "Experimental endpoint": "growth inhibition",
    "Unit abbrev": "%",
    "Experimental value": 97.3
  },
  {
    "Compound": "O=C1OCCCOC(=O)c2cc(ccc2O)OCC#CC#CCOc2ccc(O)c1c2",
    "Experimental endpoint": "growth inhibition",
    "Unit abbrev": "%",
    "Experimental value": 86.2
  },
  {
    "Compound": "C=C(CC)C[C@@H]1C[C@]2(C(=O)OC)c3[nH]c4ccccc4c3CCN2C1=O",
    "Experimental endpoint": "growth inhibition",
    "Unit abbrev": "%",
    "Experimental value": 48.5
  },
  {
    "Compound": "CCc1nc(N)nc(N)c1-c1ccc(N2CCCCC2)c([N+](=O)[O-])c1",
    "Experimental endpoint": "growth inhibition",
    "Unit abbrev": "%",
    "Experimental value": 91.7
  },
  {
    "Compound": "COc1cc(C2OC(=O)c3ccccc3S2)ccc1O (stereo not given)",
    "Experimental endpoint": "growth inhibition",
    "Unit abbrev": "%",
    "Experimental value": 95.5
  }
]

----------
Below is a list of entries, each paired with its recorded growth inhibition value.
Test: NCI Yeast Anticancer Drug Screen. Data for the rad50 strain (AID 155);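 further: 0% = growth of vehicle-only cultures of the same strain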
Conditions: S. cerevisiae rad50 strain growth inhibition; at 5.0 µM (retest, dose inferred, filed as 0.5); hits give high values
About 79,000 compounds went through this panel and 15% of them were active in at least one assay; those are over-represented in the sample as a whole.
Experimental endpoint: growth inhibition (%)

[
  {
    "Compound": "O=C(Nc1ccccc1)OCCCCl",
    "Experimental value": -7
  },
  {
    "Compound": "Nc1ccc2c(c1)CCc1ccccc1-2",
    "Experimental value": 1
  },
  {
    "Compound": "COc1ccc(CCN2CC(=O)N3CSCC3C2=O)cc1OC (configuration not stated)",
    "Experimental value": 6
  },
  {
    "Compound": "Cc1ccc(NC(=O)CC2SC(=Nc3ccc(Cl)cc3)NC2=O)cc1C (configuration not stated)",
    "Experimental value": 79
  },
  {
    "Compound": "CNC(=O)OCC1=CC(=O)C(OC)=C(OC)C1=O",
    "Experimental value": -15
  },
  {
    "Compound": "CC1=C(C)CC2C(=O)C(C(O)CC(C)C)=CC(=O)C2C1 (configuration not stated)",
    "Experimental value": -4
  },
  {
    "Compound": "COc1ccc2nc3cc([N+](=O)[O-])ccc3c(NCCO)c2c1",
    "Experimental value": -24
  }
]

----------
Assay: NCI Yeast Anticancer Drug Screen. Data for the cln2 rad14 strain (AID 165);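 further: 0% = growth equal to vehicle treated cultures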
Settings: S. cerevisiae cln2 rad14 strain, at 5.0 µM (retest, dose inferred, filed as 0.5), hits give high values
Compounds without any hit were thinned out: in the full panel of roughly 79,000, 15% have a hit.

[
  {
    "Compound": "CN(c1ccccc1)N(C)c1ccccc1",
    "Unit abbrev": "%",
    "growth inhibition": 8
  },
  {
    "Compound": "Cn1c(CN(Cc2nc3ccccc3n2C)Cc2nc3ccccc3n2C)nc2ccccc21",
    "Unit abbrev": "%",
    "growth inhibition": 3
  },
  {
    "Compound": "O=c1oc2ccccc2c(O)c1/C=N\\c1nc(-c2ccccc2)cs1",
    "Unit abbrev": "%",
    "growth inhibition": 36
  },
  {
    "Compound": "[N-]=[N+]=Nc1ccc(SN2C(=O)c3ccccc3C2=O)cc1",
    "Unit abbrev": "%",
    "growth inhibition": 3
  },
  {
    "Compound": "Cc1cc(NCCCCCCCCCC[n+]2c(C)cc(N)c3ccccc32)c2ccccc2n1",
    "Unit abbrev": "%",
    "growth inhibition": 95
  },
  {
    "Compound": "O=C1/C(=C/c2ccc(Cl)c(Cl)c2)CN(C(=O)CCN2CCOCC2)C/C1=C\\c1ccc(Cl)c(Cl)c1",
    "Unit abbrev": "%",
    "growth inhibition": 90
  },
  {
    "Compound": "NC(=S)SCCC(=O)O",
    "Unit abbrev": "%",
    "growth inhibition": -3
  },
  {
    "Compound": "CCN(CC)CCNc1ccc(C)c2sc3c(OC)cccc3c(=O)c12",
    "Unit abbrev": "%",
    "growth inhibition": -2
  },
  {
    "Compound": "COc1ccc2c(c1)CCC1C2CCC2(C)C(=O)C(SC3=NC=NC4=NC=NC43)CC12 (configuration not stated)",
    "Unit abbrev": "%",
    "growth inhibition": -3
  },
  {
    "Compound": "O=C(CC(O)c1ccccc1)Sc1ccccc1 (configuration not stated)",
    "Unit abbrev": "%",
    "growth inhibition": -2
  },
  {
    "Compound": "CN(Cc1cc(Br)cc(Br)c1O)Cc1c[nH]c2ccccc12",
    "Unit abbrev": "%",
    "growth inhibition": -2
  },
  {
    "Compound": "O=c1oc2ccccc2c(O)c1/C=N/C(=S)Nc1ccccc1",
    "Unit abbrev": "%",
    "growth inhibition": 0
  },
  {
    "Compound": "CCS(=O)(=O)/C=C\\S(=O)(=O)CC",
    "Unit abbrev": "%",
    "growth inhibition": -49
  },
  {
    "Compound": "ClC(Cl)(Cl)C1OCOC(C(Cl)(Cl)Cl)O1 (configuration not stated)",
    "Unit abbrev": "%",
    "growth inhibition": 24
  },
  {
    "Compound": "CCOC(=O)C1=C(C)NC2=C(C(=O)N(c3ccccc3)C2c2ccccc2)C1c1ccccc1 (configuration not stated)",
    "Unit abbrev": "%",
    "growth inhibition": -11
  },
  {
    "Compound": "C/C=C(/CCC1NCCC2c3ccccc3NC12)[Si](C)(C)C (configuration not stated)",
    "Unit abbrev": "%",
    "growth inhibition": -5
  },
  {
    "Compound": "O=C1C(=O)c2ccccc2C=C1Br",
    "Unit abbrev": "%",
    "growth inhibition": 67
  },
  {
    "Compound": "O=C(O)c1cccc(N=Nc2c(S(=O)(=O)O)ccc3c2C(=O)c2ccccc2C3=O)c1O",
    "Unit abbrev": "%",
    "growth inhibition": -21
  },
  {
    "Compound": "Oc1c(Cl)c(Cl)c2ncccc2c1Cl",
    "Unit abbrev": "%",
    "growth inhibition": 4
  },
  {
    "Compound": "CCCCCCCCCCCCCCCC1=NCCN1C",
    "Unit abbrev": "%",
    "growth inhibition": 15
  },
  {
    "Compound": "CC(O)C(O)C(O)C(O)C(O)C(=O)O (configuration not stated)",
    "Unit abbrev": "%",
    "growth inhibition": 4
  },
  {
    "Compound": "O=C1C(=O)c2ccccc2C=C1C1CCCCC1",
    "Unit abbrev": "%",
    "growth inhibition": 1
  },
  {
    "Compound": "O=C(COc1ccc(Br)cc1Br)N1N=C(c2ccc([N+](=O)[O-])o2)CC1(O)c1ccccc1 (configuration not stated)",
    "Unit abbrev": "%",
    "growth inhibition": 0
  },
  {
    "Compound": "COc1cccc2c1S(=O)(=O)C(c1ccccc1)=CC2=O",
    "Unit abbrev": "%",
    "growth inhibition": 12
  },
  {
    "Compound": "OC(c1ccccc1)(c1ccccc1)c1ccc[cH-]1.OC(c1ccccc1)(c1ccccc1)c1ccc[cH-]1.[Fe+2]",
    "Unit abbrev": "%",
    "growth inhibition": 4
  },
  {
    "Compound": "Oc1ccc(O)c2c1CC=C(Cl)C2",
    "Unit abbrev": "%",
    "growth inhibition": -1
  },
  {
    "Compound": "Oc1ccc2ccccc2c1/C=N\\Sc1ccccc1",
    "Unit abbrev": "%",
    "growth inhibition": 7
  },
  {
    "Compound": "CCn1cnc2[nH]cc(C#N)c2c1=O",
    "Unit abbrev": "%",
    "growth inhibition": -54
  },
  {
    "Compound": "N/C(=N\\N=C\\c1cc(I)cc(I)c1O)NO",
    "Unit abbrev": "%",
    "growth inhibition": 38
  },
  {
    "Compound": "Cc1ccc(S(=O)(=O)/C=C/C(=O)c2ccc3ccccc3c2)cc1",
    "Unit abbrev": "%",
    "growth inhibition": 20
  },
  {
    "Compound": "CCS(=O)(=O)/C=C/c1ccncc1",
    "Unit abbrev": "%",
    "growth inhibition": 1
  },
  {
    "Compound": "O=C(CC(=O)c1ccncc1)c1ccccc1",
    "Unit abbrev": "%",
    "growth inhibition": -16
  },
  {
    "Compound": "Cc1ccc(-c2c(N)[n+]([O-])c3ccccc3[n+]2[O-])cc1",
    "Unit abbrev": "%",
    "growth inhibition": 46
  },
  {
    "Compound": "CCCCCCCCCCCCCCCC(=O)N1CC[N+](C)(C)CC1",
    "Unit abbrev": "%",
    "growth inhibition": 5
  },
  {
    "Compound": "COc1cc(C2c3cc4c(cc3OC3(O)C=C(C)OC(=O)C23)OCO4)cc(OC)c1OC (configuration not stated)",
    "Unit abbrev": "%",
    "growth inhibition": 0
  },
  {
    "Compound": "COc1ccc2nc3cc(Cl)ccc3c(Nc3nccs3)c2c1",
    "Unit abbrev": "%",
    "growth inhibition": 9
  },
  {
    "Compound": "CC(C)CCC(C)(C)c1cc(O)ccc1O",
    "Unit abbrev": "%",
    "growth inhibition": 14
  },
  {
    "Compound": "N=C(N)c1ccc(Oc2ccc(Oc3ccc(C(=N)N)cc3)cc2)cc1",
    "Unit abbrev": "%",
    "growth inhibition": 50
  },
  {
    "Compound": "CCc1cc(-c2ccco2)c(C#N)c(=S)n1C1OC(COC(C)=O)C(OC(C)=O)C(OC(C)=O)C1OC(C)=O (configuration not stated)",
    "Unit abbrev": "%",
    "growth inhibition": 4
  },
  {
    "Compound": "NC(=O)C12OC3CC(CC(C3)O1)O2",
    "Unit abbrev": "%",
    "growth inhibition": -1
  },
  {
    "Compound": "CCCC#CC(O)(C(=O)OC1CCN(C)CC1)C1CCCCC1 (configuration not stated)",
    "Unit abbrev": "%",
    "growth inhibition": 41
  },
  {
    "Compound": "CCC(CO)Nc1nc2ccc(Br)cc2c2ccccc12 (configuration not stated)",
    "Unit abbrev": "%",
    "growth inhibition": 0
  },
  {
    "Compound": "NC(Cc1nn[nH]n1)C(=O)O (configuration not stated)",
    "Unit abbrev": "%",
    "growth inhibition": -11
  },
  {
    "Compound": "CCCCCCN(CCCCCC)CCC(=O)c1ccc2cc(Cl)c3ccccc3c2c1",
    "Unit abbrev": "%",
    "growth inhibition": 3
  },
  {
    "Compound": "CC1=C(CO)C(=O)O[C@@H]([C@@H](C)[C@H]2CC[C@H]3[C@@H]4C[C@@H](O)C5=CC=CC(=O)[C@]5(C)[C@H]4CC[C@]23C)C1",
    "Unit abbrev": "%",
    "growth inhibition": -1
  },
  {
    "Compound": "C[N+]1(C)CCN(CCCN2c3ccccc3Sc3ccccc32)CC1",
    "Unit abbrev": "%",
    "growth inhibition": 4
  },
  {
    "Compound": "COC(=O)[C@H]1[C@@H](C(C)C)O[C@@H](C(C)C)O[C@H]1C(F)(F)F",
    "Unit abbrev": "%",
    "growth inhibition": -15
  }
]
